tested_on: Serine/threonine-protein kinase 26 (Homo sapiens) (UniProt Q9P289)
Sequence (Q9P289 2-416 limits assumed): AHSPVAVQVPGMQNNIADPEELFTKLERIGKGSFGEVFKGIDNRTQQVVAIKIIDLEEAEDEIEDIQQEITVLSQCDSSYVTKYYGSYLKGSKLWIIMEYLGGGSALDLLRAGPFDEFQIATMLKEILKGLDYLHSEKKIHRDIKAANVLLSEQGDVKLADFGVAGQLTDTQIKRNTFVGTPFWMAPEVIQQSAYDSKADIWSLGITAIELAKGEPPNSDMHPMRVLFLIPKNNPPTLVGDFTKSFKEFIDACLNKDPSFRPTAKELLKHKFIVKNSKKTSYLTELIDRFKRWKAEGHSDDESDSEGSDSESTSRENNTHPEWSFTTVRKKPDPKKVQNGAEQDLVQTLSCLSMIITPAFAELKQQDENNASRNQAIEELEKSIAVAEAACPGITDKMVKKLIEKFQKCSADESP
test_settings: at 0.1 µM
Description: GSK_PKIS: MST4 mean inhibition at 0.1 uM [Nanosyn]

| molecule | inhibition (%) |
| --- | --- |
| Fc1ccc(-c2ncn(C3CCNCC3)c2-c2ccnc(Oc3ccc4c(c3)OCO4)n2)cc1 | -1.94 |
| O=C(Nc1n[nH]c2nc(-c3ccco3)ccc12)C1CC1 | 0.08 |
| CS(=O)(=O)CCNCc1cc(-c2cc3c(Nc4ccc(OCc5cccc(F)c5)c(Cl)c4)ncnc3s2)cs1 | -2.65 |
| NS(=O)(=O)c1ccc(N/N=C2\C(=O)Nc3ccc(C(=O)NCCCn4ccnc4)cc32)cc1 | -0.28 |
| COc1cc(N2CCN(C(C)C)CC2)ccc1Nc1nc(Nc2ccc(F)cc2C(=O)NC[C@@H](O)CO)c2cc[nH]c2n1 | -1.23 |
| Cc1ccc(C(=O)NC2CCC2)cc1-c1ccc(C(=O)NCC2CC2)cc1 | -3.48 |
| C[C@@H](Oc1cc(-n2cnc3ccc(OCC4CCN(C)CC4)cc32)sc1C(N)=O)c1ccccc1Cl | -8.39 |
| C[C@@H](Oc1cc(-n2cnc3ccc(OC4CCN(C)CC4)cc32)sc1C(N)=O)c1ccccc1Cl | -3.27 |
| COc1cc2ncn(-c3cc(OCc4cccs4)c(C(N)=O)s3)c2cc1OC | 2.25 |
| Fc1ccc(-c2ncn(C3CCNCC3)c2-c2ccnc(Oc3ccc(Oc4ccccc4)cc3)n2)cc1 | -1.41 |
| COc1ccc2cc(-c3c(-c4ccncc4)nc(-c4ccc([S+](C)[O-])cc4C)n3C)ccc2c1 (centres undefined) | 0.68 |
| CCS(=O)(=O)c1ccc(OC)c(Nc2ncc(-c3ccccc3Cl)o2)c1 | 1.19 |
| CN1CCN(CCCNc2nc3ccc(Oc4ccc(NC(=O)Nc5cc(C(F)(F)F)ccc5F)cc4)cc3[nH]2)CC1 | 1.41 |
| COc1cc2ncn(-c3cc(OCCc4ccccc4)c(C(N)=O)s3)c2cc1OC | -1.7 |
| Clc1ccc(CNc2nccc(-c3cnn4ncccc34)n2)cc1 | -0.31 |
| CN(C)CCOc1ccc(-c2cc(-c3ccc4c(c3)CCC4=NO)c(-c3ccncc3)o2)cc1 | 0.59 |
| C/C(Nc1ccc(S(N)(=O)=O)cc1)=C1/C(=O)Nc2ccccc21 | -1.9 |
| CCc1cccc(CC)c1/C=C/c1cncc(C(=O)NC)c1 | -0.96 |
| COC(=O)Nc1nc2ccc(Sc3ccc(NC(=O)Nc4cc(C(F)(F)F)ccc4F)cc3)cc2[nH]1 | 1.18 |

====

Parameter inhibition: see the listing below.
tested_on: MAP kinase-interacting serine/threonine-protein kinase 2 (Homo sapiens) (UniProt Q9HBH9)
Sequence (Q9HBH9 whole entry, looked up): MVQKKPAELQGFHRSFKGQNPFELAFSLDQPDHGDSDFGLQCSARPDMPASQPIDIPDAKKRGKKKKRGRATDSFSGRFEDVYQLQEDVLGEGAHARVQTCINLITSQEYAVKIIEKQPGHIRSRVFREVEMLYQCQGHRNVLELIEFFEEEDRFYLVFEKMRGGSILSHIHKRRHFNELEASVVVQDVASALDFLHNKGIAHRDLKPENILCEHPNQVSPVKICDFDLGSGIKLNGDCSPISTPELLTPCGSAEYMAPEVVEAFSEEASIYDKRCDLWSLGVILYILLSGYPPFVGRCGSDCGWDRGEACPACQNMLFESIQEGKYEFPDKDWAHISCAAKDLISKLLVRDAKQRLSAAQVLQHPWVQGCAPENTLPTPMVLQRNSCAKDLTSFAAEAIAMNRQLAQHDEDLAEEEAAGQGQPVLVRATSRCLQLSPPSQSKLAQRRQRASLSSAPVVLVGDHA
test_settings: at 0.1 µM
Description: GSK_PKIS: MNK2 mean inhibition at 0.1 uM [Nanosyn]

| compound | measurement_units | inhibition |
| --- | --- | --- |
| CCc1ccc(Oc2nccc(-c3c(-c4ccc(F)cc4)ncn3C3CCNCC3)n2)cc1 | % | 3.36 |
| O=C(Nc1n[nH]c2nc(-c3ccco3)ccc12)C1CC1 | % | 0.06 |
| COc1ccc2ncn(-c3cc(O[C@H](C)c4ccccc4Cl)c(C(N)=O)s3)c2c1 | % | 0.29 |
| COc1cccc(-n2cnc3c(N/N=C/c4ccncc4)ncnc32)c1 | % | 3.13 |
| O=C1Nc2ccc(I)cc2C1=Cc1cc(Br)c(O)c(Br)c1 | % | 2.51 |
| Fc1ccc(-c2nc3n(c2-c2ccncc2)CCS3)cc1 | % | -2.37 |
| O=C1Nc2ccccc2/C1=C/Nc1ccc(-n2cncn2)cc1 | % | 2.4 |
| NC(=O)c1cc(-c2ccc(F)cc2)cc(-c2ccncc2)c1N | % | 1.44 |
| COc1ccc2cc(-c3c(-c4ccncc4)nc(-c4ccc([S+](C)[O-])cc4C)n3C)ccc2c1 (stereo not given) | % | 0.98 |
| CN(C)CCOc1ccc(-c2cc(-c3ccc4c(c3)CCC4=NO)c(-c3ccncc3)o2)cc1 | % | 0.16 |

====

Catalogue of inhibition readings, one per entry.
tested_on: Death-associated protein kinase 1 (Homo sapiens) (UniProt P53355)
Sequence (P53355 whole entry, looked up): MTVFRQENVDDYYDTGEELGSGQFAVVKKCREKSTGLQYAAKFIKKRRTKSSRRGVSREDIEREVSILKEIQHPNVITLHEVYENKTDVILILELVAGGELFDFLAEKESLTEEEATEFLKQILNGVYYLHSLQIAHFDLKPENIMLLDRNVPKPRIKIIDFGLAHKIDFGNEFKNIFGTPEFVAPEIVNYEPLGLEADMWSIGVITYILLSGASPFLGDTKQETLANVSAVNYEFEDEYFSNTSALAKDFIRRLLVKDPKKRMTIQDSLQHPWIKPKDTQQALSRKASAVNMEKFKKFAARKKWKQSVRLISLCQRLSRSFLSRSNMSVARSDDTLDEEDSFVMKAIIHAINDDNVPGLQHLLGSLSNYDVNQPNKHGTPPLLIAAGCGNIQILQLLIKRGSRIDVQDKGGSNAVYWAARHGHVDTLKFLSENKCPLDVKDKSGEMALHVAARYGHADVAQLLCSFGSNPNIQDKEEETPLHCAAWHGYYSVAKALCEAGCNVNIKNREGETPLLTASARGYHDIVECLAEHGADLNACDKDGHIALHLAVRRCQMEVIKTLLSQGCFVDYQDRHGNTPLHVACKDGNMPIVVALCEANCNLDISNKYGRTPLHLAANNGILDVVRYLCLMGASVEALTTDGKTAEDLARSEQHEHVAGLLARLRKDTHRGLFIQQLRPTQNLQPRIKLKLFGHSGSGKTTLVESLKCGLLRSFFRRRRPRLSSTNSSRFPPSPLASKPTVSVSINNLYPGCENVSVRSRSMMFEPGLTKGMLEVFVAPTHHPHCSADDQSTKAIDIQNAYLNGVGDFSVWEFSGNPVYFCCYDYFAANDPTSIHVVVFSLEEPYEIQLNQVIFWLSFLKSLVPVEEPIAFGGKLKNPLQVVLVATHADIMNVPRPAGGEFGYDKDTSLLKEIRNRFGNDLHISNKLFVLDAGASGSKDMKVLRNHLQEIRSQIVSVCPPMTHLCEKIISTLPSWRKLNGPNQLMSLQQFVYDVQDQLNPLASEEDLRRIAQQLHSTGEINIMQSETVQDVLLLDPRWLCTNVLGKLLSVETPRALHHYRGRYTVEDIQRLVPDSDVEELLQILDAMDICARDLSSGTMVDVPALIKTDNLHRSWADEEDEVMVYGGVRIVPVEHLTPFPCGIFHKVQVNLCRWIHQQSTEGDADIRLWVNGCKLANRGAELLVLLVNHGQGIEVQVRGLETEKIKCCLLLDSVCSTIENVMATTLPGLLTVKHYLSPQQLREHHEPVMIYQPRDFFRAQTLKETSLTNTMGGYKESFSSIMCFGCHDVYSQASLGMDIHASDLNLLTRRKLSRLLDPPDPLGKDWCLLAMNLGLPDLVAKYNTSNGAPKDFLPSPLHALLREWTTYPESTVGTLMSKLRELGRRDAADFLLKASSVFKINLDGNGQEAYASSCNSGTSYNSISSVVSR
test_settings: at 1 µM

| compound | measurement_units | inhibition |
| --- | --- | --- |
| NC(=O)Cc1ccccc1Oc1nccc(-c2c(-c3ccc(F)cc3)ncn2C2CCNCC2)n1 | % | 4.92 |
| COc1ccc2ncn(-c3cc(O[C@H](C)c4ccccc4Cl)c(C(N)=O)s3)c2c1 | % | 1.29 |
| C[C@@H](Oc1cc(-n2cnc3ccc(OCC4CCN(C)CC4)cc32)sc1C(N)=O)c1ccccc1Cl | % | 9.2 |
| COc1cc(N2CCN(C(C)C)CC2)ccc1Nc1nc(Nc2ccc(F)cc2C(=O)NC[C@@H](O)CO)c2cc[nH]c2n1 | % | 46.8 |
| O=C(NCC1CC1)c1ccc(-c2cccc(C(=O)NC3CC3)c2)cc1 | % | 3.86 |
| Fc1ccc(-c2ncn(CCCN3CCOCC3)c2-c2ccncc2)cc1 | % | 2.3 |
| COc1ccc(-c2ccc3c(NC(=O)C4CC4)n[nH]c3n2)cc1 | % | 3.76 |
| COc1cccc(-n2cnc3c(N/N=C/c4ccncc4)ncnc32)c1 | % | -2.81 |
| CS(=O)(=O)CCNCc1ccc(-c2ccc3ncnc(Nc4ccc(OCc5ccccc5)c(Br)c4)c3c2)o1 | % | 2.27 |
| Fc1ccc(-c2ncn(C3CCNCC3)c2-c2ccnc(Oc3ccc4c(c3)OCO4)n2)cc1 | % | -4.62 |
| NCc1ccc(-n2c(-c3nonc3N)nc3cnccc32)cc1 | % | 9.98 |
| O=C(Nc1n[nH]c2nc(-c3ccco3)ccc12)C1CC1 | % | 8.47 |
| CCc1ccc(Oc2nccc(-c3c(-c4ccc(F)cc4)ncn3C3CCNCC3)n2)cc1 | % | 4.64 |
| CS(=O)(=O)CCNCc1cc(-c2cc3c(Nc4ccc(OCc5cccc(F)c5)c(Cl)c4)ncnc3s2)cs1 | % | -0.04 |
| Nc1nccc(-c2c(-c3ccc(F)cc3)ncn2C2CCC(O)CC2)n1 (stereo not drawn) | % | -0.38 |
| c1ccc(Oc2ccc(Nc3ncc(-c4ccccc4)o3)cc2)cc1 | % | 0.04 |
| COc1ccc(C2=C(N3CCc4ccccc43)C(=O)NC2=O)cc1 | % | 4.07 |
| Fc1ccc(-c2nc3n(c2-c2ccncc2)CCS3)cc1 | % | 2.21 |
| O=C1NC(=O)C(c2cccc(Cl)c2)=C1Nc1ccc(Cl)c(C(=O)O)c1 | % | 3.41 |
| CCc1nccc2c1nc(-c1nonc1N)n2CC | % | 2.17 |
| Fc1ccc(-c2ncn(C3CCNCC3)c2-c2ccnc(Oc3ccc(F)c(F)c3)n2)cc1 | % | 2.08 |
| N#Cc1ccc(Oc2nccc(-c3c(-c4ccc(F)cc4)ncn3C3CCNCC3)n2)cc1 | % | -0.22 |
| COc1ccc2cc(-c3c(-c4ccncc4)nc(-c4ccc(S(C)(=O)=O)cc4C)n3C)ccc2c1 | % | -3.68 |
| CCS(=O)(=O)c1ccc(OC)c(Nc2ncc(-c3cccc(-c4ccccc4F)c3)o2)c1 | % | -0.11 |
| COc1cc2ncn(-c3cc(OCc4ccccc4C(F)(F)F)c(C(C)=O)s3)c2cc1OC | % | 1.98 |
| COc1cc(C)c(N(C)C(=O)CN(C)C)cc1Nc1nc(Nc2cccc(F)c2C(N)=O)c2cc[nH]c2n1 | % | 1.79 |
| NC(=O)c1cc(-c2ccc(F)cc2)cc(-c2ccncc2)c1N | % | 1.25 |
| CN(C)CCCNc1nccc(-c2c(-c3ccc(F)cc3)nn3cc(C(F)(F)F)ccc23)n1 | % | 0.77 |
| C/C(Nc1ccc(S(N)(=O)=O)cc1)=C1/C(=O)Nc2ccccc21 | % | 1.66 |
| COc1cc2ncn(-c3cc(OCCc4ccccc4)c(C(N)=O)s3)c2cc1OC | % | 1.51 |
| O=C1Nc2ccc(I)cc2C1=Cc1cc(Br)c(O)c(Br)c1 | % | -4.68 |
| COc1ccc2cc(-c3c(-c4ccncc4)nc(-c4ccc([S+](C)[O-])cc4C)n3C)ccc2c1 (stereo not drawn) | % | -9.4 |
| CN1CCN(CCCNc2nc3ccc(Oc4ccc(NC(=O)Nc5cc(C(F)(F)F)ccc5F)cc4)cc3[nH]2)CC1 | % | -0.71 |
| c1ccc(-c2n[nH]cc2-c2ccnc(-c3ccc(OCCN4CCOCC4)cc3)c2)nc1 | % | 1.17 |
| CNC(=O)c1cncc(/C=C/c2c(C)cccc2C)c1 | % | 0.45 |
| Cc1ccc(NC(=O)c2ccoc2)cc1-c1ccc(C(=O)NCC2CC2)cc1 | % | 4.7 |
| Cc1ccc(C(=O)NC2CCC2)cc1-c1ccc(C(=O)NCC2CC2)cc1 | % | 4.36 |
| Fc1ccc(-c2c(-c3ccncc3)nc3n2CCS3)cc1 | % | -1.77 |

====

tested_on: Non-receptor tyrosine-protein kinase TYK2 (Homo sapiens) (UniProt P29597)
Sequence (P29597 whole entry): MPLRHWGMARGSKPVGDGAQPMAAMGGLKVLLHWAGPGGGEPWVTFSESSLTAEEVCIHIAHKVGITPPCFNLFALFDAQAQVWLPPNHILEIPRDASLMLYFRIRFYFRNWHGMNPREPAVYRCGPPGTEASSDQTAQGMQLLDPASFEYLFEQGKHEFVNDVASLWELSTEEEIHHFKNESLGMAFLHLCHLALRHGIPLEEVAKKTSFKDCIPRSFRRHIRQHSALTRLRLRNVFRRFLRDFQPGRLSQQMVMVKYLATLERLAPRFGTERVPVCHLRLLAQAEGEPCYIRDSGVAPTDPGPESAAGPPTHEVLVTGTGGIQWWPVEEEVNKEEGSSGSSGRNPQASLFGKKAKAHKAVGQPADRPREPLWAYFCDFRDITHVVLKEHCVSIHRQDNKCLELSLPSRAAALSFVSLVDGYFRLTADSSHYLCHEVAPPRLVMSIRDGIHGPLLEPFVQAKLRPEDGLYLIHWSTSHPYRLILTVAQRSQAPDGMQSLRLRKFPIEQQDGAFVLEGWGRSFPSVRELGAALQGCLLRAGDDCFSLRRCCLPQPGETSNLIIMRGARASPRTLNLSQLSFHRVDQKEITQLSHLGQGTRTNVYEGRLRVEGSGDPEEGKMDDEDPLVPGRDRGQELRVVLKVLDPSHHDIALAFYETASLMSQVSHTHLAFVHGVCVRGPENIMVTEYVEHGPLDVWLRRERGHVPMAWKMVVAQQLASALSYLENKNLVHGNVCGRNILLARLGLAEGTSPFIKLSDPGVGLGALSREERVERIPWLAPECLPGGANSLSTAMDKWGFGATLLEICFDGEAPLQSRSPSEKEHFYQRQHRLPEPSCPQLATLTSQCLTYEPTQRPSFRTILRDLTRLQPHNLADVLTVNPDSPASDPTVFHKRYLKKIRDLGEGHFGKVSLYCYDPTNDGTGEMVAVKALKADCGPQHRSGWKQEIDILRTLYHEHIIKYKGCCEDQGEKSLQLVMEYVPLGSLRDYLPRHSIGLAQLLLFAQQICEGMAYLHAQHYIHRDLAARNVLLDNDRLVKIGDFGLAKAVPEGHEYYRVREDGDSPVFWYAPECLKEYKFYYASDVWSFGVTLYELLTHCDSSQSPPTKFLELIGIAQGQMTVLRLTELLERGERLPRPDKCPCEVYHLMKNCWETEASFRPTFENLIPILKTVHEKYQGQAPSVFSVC
test_settings: at 0.1 µM
Overview of recorded inhibition for various compounds

| compound | inhibition / % |
| --- | --- |
| Clc1ccc(CNc2nccc(-c3cnn4ncccc34)n2)cc1 | -1.15 |
| O=C(Nc1n[nH]c2nc(-c3ccco3)ccc12)C1CC1 | -1.75 |
| CCC(=O)Nc1ccc(C)c(-c2ccc(C(=O)NCC3CC3)cc2)c1 | -2.17 |
| O=C1NC(=O)C(c2cccc(Cl)c2)=C1Nc1ccc(Cl)c(C(=O)O)c1 | -0.74 |
| Fc1ccc(-c2ncn(C3CCNCC3)c2-c2ccnc(Oc3ccc(F)c(F)c3)n2)cc1 | -3.58 |
| COc1ccc2ncn(-c3cc(O[C@H](C)c4ccccc4Cl)c(C(N)=O)s3)c2c1 | -5.25 |
| CCN(CC)Cc1ccc(Nc2nccc(-c3cnn4ncccc34)n2)cc1 | -7.84 |
| Nc1nccc(-c2c(-c3ccc(F)cc3)ncn2C2CCC(O)CC2)n1 (stereo not given) | -2.03 |
| N#Cc1ccc(Oc2nccc(-c3c(-c4ccc(F)cc4)ncn3C3CCNCC3)n2)cc1 | -3.12 |
| NC(=O)c1ccc(Oc2nccc(-c3c(-c4ccc(F)cc4)ncn3C3CCNCC3)n2)cc1 | -1.79 |
